These measurements were taken from ChEMBL document CHEMBL5058577.

system: U2OS; assay: Multiplex assay against U2OS; format: toxicity, cell-based; details: human, 24 h, 10 µM, compound concentration 10 uM, replicate 2
# reported Population Hoechst High Intensity Objects (%); entries follow
Reply numerically in %, unit not repeated.

[
  {
    "COMPOUND": "C[C@@H]1C[C@H]2[C@@H]3CCC4=CC(=O)C=C[C@]4(C)[C@@]3(F)[C@@H](O)C[C@]2(C)[C@@]1(O)C(=O)CO",
    "MEASURED_RESULT": 0
  },
  {
    "COMPOUND": "CC(=O)NCCc1c(Cc2ccccc2)[nH]c2ccccc12",
    "MEASURED_RESULT": 0
  },
  {
    "COMPOUND": "C[C@H]1[C@H]2CC[C@H]3[C@@H]4CC=C5C[C@@H](N(C)C)CC[C@]5(C)[C@H]4CC[C@]23CN1C",
    "MEASURED_RESULT": 4
  },
  {
    "COMPOUND": "CNC[C@H](O)c1ccc(O)c(O)c1 [EPINEPHRINE]",
    "MEASURED_RESULT": 11
  },
  {
    "COMPOUND": "Cc1ccc(C(C)(O)c2nc3ccccc3s2)c(C)c1 (centres undefined)",
    "MEASURED_RESULT": 4
  },
  {
    "COMPOUND": "CCCC(CCC)C(=O)O",
    "MEASURED_RESULT": 0
  }
]

Population Hoechst High Intensity Objects (%) reported for this compound `Cc1ccc(/C(=C\CN2CCCC2)c2ccccn2)cc1` : 1

Note to self: Population Hoechst High Intensity Objects (%) recorded for `O=C(O)c1cc2ccccc2c(Cc2c(O)c(C(=O)O)cc3ccccc23)c1O` was 1

Per the record, `CC(C)(C)c1ccc(S(=O)(=O)Nc2ccc(Cl)cc2C(=O)c2cc[n+]([O-])cc2)cc1` has Population Hoechst High Intensity Objects (%) of 1

###

test system: HEK-293T; assay: Multiplex assay against HEK293T; assay type: toxicity, cell-based; conditions: human, 48 h, 1 µM, compound concentration 1 uM, replicate 2
PARAMETER: Population Pyknosed Nuclei (%)
Give the quantity in %, number only.

See these solved cases before continuing.
[
  {
    "SMILES_REPRESENTATION": "Oc1c(CN2CCN(c3ccccn3)CC2)cc(Cl)c2cccnc12",
    "MEASURED_RESULT": 5
  },
  {
    "SMILES_REPRESENTATION": "N#Cc1c(N)nc(SCc2csc(-c3ccc(Cl)cc3)n2)c(C#N)c1-c1ccc(OCCO)cc1",
    "MEASURED_RESULT": 8
  },
  {
    "SMILES_REPRESENTATION": "COc1cc(NC(=O)CCN2CCC(OC(=O)Nc3ccccc3-c3ccccc3)CC2)c(Cl)cc1CNC[C@H](O)c1ccc(O)c2[nH]c(=O)ccc12",
    "MEASURED_RESULT": 6
  },
  {
    "SMILES_REPRESENTATION": "CN(C)CCCc1cc(C(=O)Nc2ccc(-c3ccncc3)cc2)ccc1O.Cl.Cl",
    "MEASURED_RESULT": 8
  },
  {
    "SMILES_REPRESENTATION": "Cc1ccc(/C(=C\\CN2CCCC2)c2ccccn2)cc1",
    "MEASURED_RESULT": 4
  },
  {
    "SMILES_REPRESENTATION": "C[C@@H]1C[C@H]2[C@@H]3CCC4=CC(=O)C=C[C@]4(C)[C@@]3(F)[C@@H](O)C[C@]2(C)[C@@]1(O)C(=O)CO",
    "MEASURED_RESULT": 6
  },
  {
    "SMILES_REPRESENTATION": "O=C(O)c1cc2ccccc2c(Cc2c(O)c(C(=O)O)cc3ccccc23)c1O",
    "MEASURED_RESULT": 6
  }
]

Now consider the entry below.
Entry `CC1(COc2ccc3c(c2)ncn3-c2ccc3cccc(N4CCC(N)CC4)c3n2)COC1` ; Population Pyknosed Nuclei (%) = 6
